Where do these numbers come from? They come from PubChem BioAssay.

Consider the following compounds and their measured viability readings.
# Method Summary: reversal of MRP1-mediated doxorubicin resistance, pilot screen, H69AR cells, doxorubicin co-treatment (AID 601)
# Applied Conditions: H69AR cells, CellTiter-Glo, 72 h; compound alone cytotoxicity; at 10 µM

{"Compound": "CCOC(=O)c1ccc(S(=O)(=O)Nc2cc(C(C)(C)C)no2)cc1", "viability / %": 101}
{"Compound": "COC(=O)c1oc2ccc(Br)cc2c1NC(=O)CN1CCN(C)CC1", "viability / %": 96.6}
{"Compound": "Cc1ccc(S(=O)(=O)CC(=O)N2CCCCCC2)cc1", "viability / %": 92.7}
{"Compound": "O=C1CCc2nc3sc4c(c3c(=O)n2N1)CCCC4", "viability / %": 91.3}
{"Compound": "CCCCC(c1nnnn1CS(=O)(=O)c1ccc(C)cc1)N1CCN(c2ccccc2)CC1 (stereo not given)", "viability / %": 90.6}
{"Compound": "Cc1ccc(CN2C(=O)CCC2C(=O)NC2CCCC2)cc1 (stereo not given)", "viability / %": 94.1}
{"Compound": "CCSc1ncc(C#N)c(=O)[nH]1", "viability / %": 95}
{"Compound": "COc1ccc(NC(=O)CN2CCCCC2)cc1", "viability / %": 88.2}
{"Compound": "Cc1cnnc2c1-c1nonc1CC2", "viability / %": 105}
{"Compound": "CC(=O)Nc1ccc(S(=O)(=O)Nc2nc3n(n2)C(c2ccccc2)CC(=O)N3)cc1 (stereo not given)", "viability / %": 107}
{"Compound": "CCOC(=O)CNS(=O)(=O)c1c(C)noc1C", "viability / %": 107}
{"Compound": "O=C(Nc1cccc(C(=O)N2CCOCC2)c1)c1cccnc1", "viability / %": 91.2}
{"Compound": "CCOC(=O)C1CCN(C(=O)COc2ccc(Cl)cc2Cl)CC1", "viability / %": 96.2}
{"Compound": "Cc1ccc(NC(=O)CSc2nnc(NC(=O)CN3CCOCC3)s2)cc1", "viability / %": 94.1}
{"Compound": "COc1ccc2nc(SCC(=O)NC(C)C)[nH]c2c1", "viability / %": 96.4}
{"Compound": "O=C(OCc1nnc(-c2ccccc2)o1)C1=COCCO1", "viability / %": 92.1}
{"Compound": "CC(=O)NC(=O)NC1CSCC1OC(C)=O (stereo not given)", "viability / %": 92.8}
{"Compound": "COc1cc(Br)cc(/C=N/c2ncn[nH]2)c1O", "viability / %": 86.6}
{"Compound": "Cc1cc(C)n(-c2ccc(C(=O)Nc3ccc4c(c3)OCCO4)cc2)n1", "viability / %": 89}
{"Compound": "CC(=O)N(C)C1(c2nnnn2CCOC(=O)Nc2ccc(Cl)cc2)CCCCC1", "viability / %": 104}

====

# Lookup of reported viability keyed by entry
# Method Summary: reversal of MRP1-mediated doxorubicin resistance, pilot screen, H69AR cells, doxorubicin co-treatment (AID 601)
# Applied Conditions: H69AR cells, CellTiter-Glo, 72 h; compound alone cytotoxicity; at 10 µM
Property Name: viability

{"Compound": "CCOC(=O)c1cccc(NC(=O)CSc2nnc(C3CCCCC3)n2C)c1", "Endpoint Result": "91.3%"}
{"Compound": "CC(Sc1nc(-c2ccccc2)cc(C(F)(F)F)n1)C(=O)N1CCC(C(N)=O)CC1 (centres undefined)", "Endpoint Result": "91.1%"}
{"Compound": "CCn1cc(C(=O)Nc2cc3c(cc2NC(C)=O)OCCO3)c(=O)c2ccc(C)nc21", "Endpoint Result": "91%"}
{"Compound": "O=C(NCCCN1CCCC1=O)c1ccc2c(c1)NC(=O)C(N1CCOCC1)S2 (centres undefined)", "Endpoint Result": "89.5%"}
